FYI, the data here is from paper doi:10.1101/2020.11.09.375162v1.

Target: human CB1 receptor (hCB1) (Homo sapiens, UniProt P21554)
Sequence (P21554 whole entry): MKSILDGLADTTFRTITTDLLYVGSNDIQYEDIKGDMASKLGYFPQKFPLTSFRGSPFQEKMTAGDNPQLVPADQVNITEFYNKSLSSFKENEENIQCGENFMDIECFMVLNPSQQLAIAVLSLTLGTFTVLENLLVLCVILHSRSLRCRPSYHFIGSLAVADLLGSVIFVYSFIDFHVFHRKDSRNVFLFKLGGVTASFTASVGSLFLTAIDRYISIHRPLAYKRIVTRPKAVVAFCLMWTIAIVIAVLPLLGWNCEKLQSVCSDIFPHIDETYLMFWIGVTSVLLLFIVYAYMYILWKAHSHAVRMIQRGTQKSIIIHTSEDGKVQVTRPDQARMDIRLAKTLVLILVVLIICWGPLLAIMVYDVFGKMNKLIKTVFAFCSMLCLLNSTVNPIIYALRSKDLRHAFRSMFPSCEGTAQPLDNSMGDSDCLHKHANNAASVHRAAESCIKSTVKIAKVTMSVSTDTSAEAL
Assay: cell-based
Conditions: read-out: cAMP Emax hCB1
This section presents compounds with their documented Emax values.

Structure notation	Experimental system	Emax
CN1CCN(c2nc(C(C)(C)C)nc3c2nnn3Cc2ccccc2Cl)CC1	human CB1 receptor (hCB1) (Homo sapiens, UniProt P21554)	57%
O=S(=O)(Cc1ccccc1)c1nc(N2CCC(F)(F)C2)c2nnn(Cc3ccccc3Cl)c2n1	human CB1 receptor (hCB1) (Homo sapiens, UniProt P21554)	9%
CCOC(=O)[C@H](CC(C)C)NC(=O)c1ccc(C2CC2)c(Cc2ccc(F)cc2)n1	human CB1 receptor (hCB1) (Homo sapiens, UniProt P21554)	83%
CC(C)(C)c1noc(-c2ccc(C3CC3)c(Cc3ccc(F)cc3)n2)n1	human CB1 receptor (hCB1) (Homo sapiens, UniProt P21554)	70%
OCCSc1nc(N2CCC(F)(F)C2)c2nnn(Cc3ccccc3Cl)c2n1	human CB1 receptor (hCB1) (Homo sapiens, UniProt P21554)	20%
CCOC(=O)C(CC)(CC)NC(=O)c1ccc(N2CCCC2)c(OCC2CC2)n1	human CB1 receptor (hCB1) (Homo sapiens, UniProt P21554)	59%
